All values here come from paper PMC8603350.

// Ki lookup, one value per entry
# EXPERIMENTAL_TARGET: Langerin ECD (Homo sapiens, UniProt Q9UJ71)
# Construct: the trimeric Langerin extracellular domain (ECD) was
# Sequence (Q9UJ71 65-328 limits assumed): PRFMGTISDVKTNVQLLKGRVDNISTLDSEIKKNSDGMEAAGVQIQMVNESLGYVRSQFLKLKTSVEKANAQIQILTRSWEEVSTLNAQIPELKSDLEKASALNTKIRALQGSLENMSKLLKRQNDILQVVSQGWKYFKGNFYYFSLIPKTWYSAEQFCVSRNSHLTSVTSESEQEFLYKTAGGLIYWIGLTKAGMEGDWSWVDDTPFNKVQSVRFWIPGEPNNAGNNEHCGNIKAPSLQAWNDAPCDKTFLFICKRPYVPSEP
# ASSAY_PROCEDURE: 19F NMR reporter displacement assay (RDA), KI determination by titration
# RECORDED_CONDITIONS: competitive titration, 0.1 mM reporter ligand 49, 10% DMSO

>  <COMPOUND>
CC(=O)NCCS(=O)(=O)NC[C@H]1O[C@H](Oc2ccc(-c3ccc(C(=O)O)cc3)cc2C(F)(F)F)[C@@H](O)[C@@H](O)[C@@H]1O

>  <Ki>
250 µM

$$$$
>  <COMPOUND>
COC1OC(CO)C(O)C(O)C1O (stereo not drawn) [compound 46, reference compound]

>  <Ki>
13000 µM

$$$$
>  <COMPOUND>
O=C(O)c1ccc(-c2ccc(O[C@H]3O[C@H](CO)[C@@H](O)[C@H](O)[C@@H]3O)c(C(F)(F)F)c2)cc1

>  <Ki>
230 µM

$$$$

----------
# EXPERIMENTAL_TARGET: DC-SIGN ECD (Homo sapiens, UniProt Q9NNX6)
# Construct: DC-SIGN extracellular domain (ECD); made in house; host or cells: E. coli BL21(DE3), pET30b; gene from GenScript
# Sequence (Q9NNX6 59-404 limits assumed): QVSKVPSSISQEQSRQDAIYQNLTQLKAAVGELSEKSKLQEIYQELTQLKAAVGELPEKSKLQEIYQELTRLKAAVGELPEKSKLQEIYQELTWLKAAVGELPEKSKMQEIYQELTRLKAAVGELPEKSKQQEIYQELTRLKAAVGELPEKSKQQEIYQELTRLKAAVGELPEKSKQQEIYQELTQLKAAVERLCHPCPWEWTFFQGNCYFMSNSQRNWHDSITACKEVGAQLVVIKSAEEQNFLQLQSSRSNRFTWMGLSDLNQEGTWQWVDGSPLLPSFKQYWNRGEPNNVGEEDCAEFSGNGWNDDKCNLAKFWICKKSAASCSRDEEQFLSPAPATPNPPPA
# ASSAY_PROCEDURE: Direct 19F R2-filtered NMR binding experiments (CF3 resonance)
# RECORDED_CONDITIONS: direct observation of CF3 relaxation rate R2,obs
pKd: −log10 of the molar value.

>  <COMPOUND_STRING>
NC[C@H]1O[C@H](Oc2ccc(-c3ccc(C(=O)O)cc3)cc2C(F)(F)F)[C@@H](O)[C@@H](O)[C@@H]1O

>  <EXPERIMENTAL_TARGET>
DC-SIGN ECD (Homo sapiens, UniProt Q9NNX6)

>  <pKd>
3.32

$$$$

----------
// Ki lookup, one value per entry
# EXPERIMENTAL_TARGET: DC-SIGN ECD (Homo sapiens, UniProt Q9NNX6)
# Construct: DC-SIGN extracellular domain (ECD)
# ASSAY_PROCEDURE: 19F NMR reporter displacement assay transferred to DC-SIGN ECD
# RECORDED_CONDITIONS: 0.1 mM reporter 49; for 48 estimated, receptor precipitation above 1 mM

>  <COMPOUND>
OC[C@H]1OC(O)[C@@H](O)[C@@H](O)[C@@H]1O (some centres unmarked) [Man, mannose, reference compound]

>  <Ki, µM>
2400

$$$$
>  <COMPOUND>
NC[C@H]1O[C@H](Oc2ccc(-c3ccc(C(=O)O)cc3)cc2C(F)(F)F)[C@@H](O)[C@@H](O)[C@@H]1O [compound 48]

>  <Ki, µM>
1150

$$$$

----------
# EXPERIMENTAL_TARGET: Langerin ECD (Homo sapiens)
# Construct: the trimeric Langerin extracellular domain (ECD) was; made in house; host or cells: E. coli BL21* (DE3)
# ASSAY_PROCEDURE: 19F NMR reporter displacement assay (RDA), KI determination by titration
# Type: binding
# RECORDED_CONDITIONS: calculated utilizing the KI value determined for 45
// Relative potency lookup, one value per entry

>  <MOLECULE>
O=C(O)c1ccc(-c2ccc(O[C@H]3O[C@H](CO)[C@@H](O)[C@H](O)[C@@H]3O)c(C(F)(F)F)c2)cc1 [compound 9]

>  <Relative potency>
44

$$$$
>  <MOLECULE>
CC(=O)NCCS(=O)(=O)NC[C@H]1O[C@H](Oc2ccc(-c3ccc(C(=O)O)cc3)cc2C(F)(F)F)[C@@H](O)[C@@H](O)[C@@H]1O [compound 43]

>  <Relative potency>
40

$$$$
>  <MOLECULE>
CC(=O)NCCO[C@H]1O[C@H](CO)[C@@H](O)[C@H](O)[C@@H]1O [compound 45, reference compound]

>  <Relative potency>
1.0

$$$$
>  <MOLECULE>
OC[C@H]1OC(O)[C@@H](O)[C@@H](O)[C@@H]1O (stereo partly shown) [Man, mannose, reference compound]

>  <Relative potency>
2.2

$$$$
